In this section, each of the compounds is paired with its reported MIC.
Test system: Streptococcus pneumoniae
Assay: Antibacterial activity against Streptococcus pneumoniae ATCC 49619 incubated for 16 to 20 hrs by CLSI based broth microdilution method
Assay type: functional
Details: time 16-20 hrs

compound	operator symbol	MIC [mg/L]
CC[C@H]1OC(=O)[C@H](C)[C@@H](O[C@H]2C[C@@](C)(OC)[C@@H](O)[C@H](C)O2)[C@H](C)[C@@H](O[C@@H]2O[C@H](C)C[C@H](N(C)C)[C@H]2O)[C@](C)(OC)C[C@@H](C)C(=O)[C@H](C)[C@@H](O)[C@]1(C)O	=	0.062
CC[C@H]1OC(=O)[C@H](C)[C@@H](OC(=O)CCNCCCCNc2cc3c(cc2F)c(=O)c(C(=O)O)cn3C2CC2)[C@H](C)[C@@H](O[C@@H]2O[C@H](C)C[C@H](N(C)C)[C@H]2O)[C@](C)(OC)C[C@@H](C)/C(=N\OCCCc2cncc(C(=O)NC)c2)[C@H](C)[C@H]2OC(=O)O[C@@]21C	≤	0.008
CC[C@H]1OC(=O)[C@H](C)[C@@H](OC(=O)CCN2CCN(c3cc4c(cc3F)c(=O)c(C(N)=O)cn4C3CC3)CC2)[C@H](C)[C@@H](O[C@@H]2O[C@H](C)C[C@H](N(C)C)[C@H]2O)[C@](C)(OC)C[C@@H](C)/C(=N\OCC#Cc2cncc(C(=O)NC)c2)[C@H](C)[C@H]2OC(=O)O[C@@]21C	=	0.25
CC[C@H]1OC(=O)[C@H](C)C(=O)[C@H](C)[C@@H](O[C@@H]2O[C@H](C)C[C@H](N(C)C)[C@H]2O)[C@](C)(OC)C[C@@H](C)C(=O)[C@H](C)[C@H]2N(CCCCn3cnc(-c4cccnc4)c3)C(=O)O[C@]12C	=	0.031
CC[C@H]1OC(=O)[C@H](C)[C@@H](OC(=O)CCNCCCCNc2cc3c(cc2F)c(=O)c(C(=O)O)cn3C2CC2)[C@H](C)[C@@H](O[C@@H]2O[C@H](C)C[C@H](N(C)C)[C@H]2O)[C@](C)(OC)C[C@@H](C)/C(=N\OCC#Cc2cncc(NC(C)=O)c2)[C@H](C)[C@H]2OC(=O)O[C@@]21C	=	0.016

---

System: Haemophilus influenzae
Assay: Selectivity ratio of MBC for Haemophilus influenzae ATCC 49247 to MIC for Haemophilus influenzae ATCC 49247
Type: functional

molecule	Selectivity ratio
CC[C@H]1OC(=O)[C@H](C)[C@@H](OC(=O)CCNCCCCNc2cc3c(cc2F)c(=O)c(C(=O)O)cn3C2CC2)[C@H](C)[C@@H](O[C@@H]2O[C@H](C)C[C@H](N(C)C)[C@H]2O)[C@](C)(OC)C[C@@H](C)/C(=N\OCC#Cc2ccc3c(c2)c(=O)c(C(N)=O)cn3CC)[C@H](C)[C@H]2OC(=O)O[C@@]21C	1
CC[C@H]1OC(=O)[C@H](C)[C@@H](OC(=O)CCNCCCCNc2cc3c(cc2F)c(=O)c(C(=O)O)cn3C2CC2)[C@H](C)[C@@H](O[C@@H]2O[C@H](C)C[C@H](N(C)C)[C@H]2O)[C@](C)(OC)C[C@@H](C)/C(=N\OCC#Cc2cncc(C(=O)NC)c2)[C@H](C)[C@H]2OC(=O)O[C@@]21C	2
CC[C@H]1OC(=O)[C@H](C)[C@@H](OC(=O)CCN2CCN(c3cc4c(cc3F)c(=O)c(C(=O)O)cn4C3CC3)CC2)[C@H](C)[C@@H](O[C@@H]2O[C@H](C)C[C@H](N(C)C)[C@H]2O)[C@](C)(OC)C[C@@H](C)/C(=N\OCCCc2cncc(C(=O)NC)c2)[C@H](C)[C@H]2OC(=O)O[C@@]21C	1
CC[C@H]1OC(=O)[C@H](C)[C@@H](OC(=O)Cc2ccccn2)[C@H](C)[C@@H](O[C@@H]2O[C@H](C)C[C@H](N(C)C)[C@H]2O)[C@](C)(OC(=O)CCN2CCN(c3c(F)cc4c(=O)c(C(=O)O)cn(C5CC5)c4c3OC)CC2C)C[C@@H](C)CN(C)[C@H](C)[C@@H](O)[C@]1(C)O (stereo not given in full)	1
CC[C@H]1OC(=O)[C@H](C)[C@@H](OC(=O)CCNCCCNc2cc3c(=O)c(C(=O)O)cn(C4CC4)c3cc2Cl)[C@H](C)[C@@H](O[C@@H]2O[C@H](C)C[C@H](N(C)C)[C@H]2O)[C@](C)(OC)C[C@@H](C)/C(=N\OC)[C@H](C)[C@H]2OC(=O)O[C@@]21C	1

---

Below, each entry is listed with its recorded MIC.
Test system: Staphylococcus aureus
Experiment: Antibacterial activity against methicillin-resistant Staphylococcus aureus PU 20 harboring c-ermA gene incubated for 16 to 20 hrs by CLSI based broth microdilution method
Type: functional
Conditions: time 16-20 hrs

compound	assayed target	MIC
CC[C@H]1OC(=O)[C@H](C)[C@@H](OC(=O)CCNCCCCNc2cc3c(cc2F)c(=O)c(C(=O)O)cn3C2CC2)[C@H](C)[C@@H](O[C@@H]2O[C@H](C)C[C@H](N(C)C)[C@H]2O)[C@](C)(OC)C[C@@H](C)/C(=N\OC/C=C/c2cncc(C(=O)NC)c2)[C@H](C)[C@H]2OC(=O)O[C@@]21C	Staphylococcus aureus	> 256 µg/mL
CC[C@H]1OC(=O)[C@H](C)[C@@H](OC(=O)CCN2CCN(c3cc4c(cc3F)c(=O)c(C(=O)O)cn4C3CC3)CC2)[C@H](C)[C@@H](O[C@@H]2O[C@H](C)C[C@H](N(C)C)[C@H]2O)[C@](C)(OC)C[C@@H](C)/C(=N\OCC#Cc2cncc3ccccc23)[C@H](C)[C@H]2OC(=O)O[C@@]21C	Staphylococcus aureus	> 256 µg/mL
CC[C@H]1OC(=O)[C@H](C)[C@@H](OC(=O)CCNCCCCNc2cc3c(cc2F)c(=O)c(C(=O)O)cn3C2CC2)[C@H](C)[C@@H](O[C@@H]2O[C@H](C)C[C@H](N(C)C)[C@H]2O)[C@](C)(OC)C[C@@H](C)/C(=N\OC/C=C/c2cncc(C(N)=O)c2)[C@H](C)[C@H]2OC(=O)O[C@@]21C	Staphylococcus aureus	> 256 µg/mL

---

System: Staphylococcus aureus
Assay: Antibacterial activity against methicillin-resistant Staphylococcus aureus PU 20 harboring c-ermA gene incubated for 16 to 20 hrs by CLSI based broth microdilution method
Assay type: functional
Settings: time 16-20 hrs
The following molecules are shown together with reported MIC values.

compound	MIC
CC[C@H]1OC(=O)[C@H](C)[C@@H](OC(=O)CCN2CCN(c3cc4c(cc3F)c(=O)c(C(=O)O)cn4CC)CC2)[C@H](C)[C@@H](O[C@@H]2O[C@H](C)C[C@H](N(C)C)[C@H]2O)[C@](C)(OC)C[C@@H](C)/C(=N\OCC#Cc2cncc(C(=O)NC)c2)[C@H](C)[C@H]2OC(=O)O[C@@]21C	> 256 µg/mL
CC[C@H]1OC(=O)[C@H](C)[C@@H](OC(=O)CCN2CCN(c3nc4c(cc3F)c(=O)c(C(=O)O)cn4CC)CC2)[C@H](C)[C@@H](O[C@@H]2O[C@H](C)C[C@H](N(C)C)[C@H]2O)[C@](C)(OC)C[C@@H](C)/C(=N\OCC#Cc2cncc(C(=O)NC)c2)[C@H](C)[C@H]2OC(=O)O[C@@]21C	> 256 µg/mL

---

Reported values of Selectivity ratio for individual entries
Test system: Haemophilus influenzae
Assay: Selectivity ratio of MBC for Haemophilus influenzae ATCC 49247 to MIC for Haemophilus influenzae ATCC 49247
Assay type: functional
reported property: Selectivity ratio

compound	reported property	experimental value
CC[C@H]1OC(=O)[C@H](C)[C@@H](OC(=O)CCNCCCCNc2cc3c(cc2F)c(=O)c(C(=O)O)cn3C2CC2)[C@H](C)[C@@H](O[C@@H]2O[C@H](C)C[C@H](N(C)C)[C@H]2O)[C@](C)(OC)C[C@@H](C)/C(=N\OCC#Cc2cncc(C(=O)NC3CC3)c2)[C@H](C)[C@H]2OC(=O)O[C@@]21C	Selectivity ratio	1
CC[C@H]1OC(=O)[C@H](C)[C@@H](OC(=O)CCN2CCN(c3nc4c(cc3F)c(=O)c(C(=O)O)cn4CC)CC2)[C@H](C)[C@@H](O[C@@H]2O[C@H](C)C[C@H](N(C)C)[C@H]2O)[C@](C)(OC)C[C@@H](C)/C(=N\OCC#Cc2cncc(C(=O)NC)c2)[C@H](C)[C@H]2OC(=O)O[C@@]21C	Selectivity ratio	1
CC[C@H]1OC(=O)[C@H](C)[C@@H](OC(=O)CCNCCCCNc2cc3c(cc2F)c(=O)c(C(=O)O)cn3C2CC2)[C@H](C)[C@@H](O[C@@H]2O[C@H](C)C[C@H](N(C)C)[C@H]2O)[C@](C)(OC)C[C@@H](C)/C(=N\OC/C=C/c2ccc3c(c2)c(=O)c(C(N)=O)cn3CC)[C@H](C)[C@H]2OC(=O)O[C@@]21C	Selectivity ratio	1
CC[C@H]1OC(=O)[C@H](C)[C@@H](OC(=O)CCN2CCN(c3cc4c(cc3F)c(=O)c(C(=O)O)cn4C3CC3)CC2)[C@H](C)[C@@H](O[C@@H]2O[C@H](C)C[C@H](N(C)C)[C@H]2O)[C@](C)(OC)C[C@@H](C)/C(=N\OC)[C@H](C)[C@H]2OC(=O)O[C@@]21C	Selectivity ratio	2
CC[C@H]1OC(=O)[C@H](C)[C@@H](OC(=O)CCNCCCCNc2cc3c(cc2F)c(=O)c(C(=O)O)cn3C2CC2)[C@H](C)[C@@H](O[C@@H]2O[C@H](C)C[C@H](N(C)C)[C@H]2O)[C@](C)(OC)C[C@@H](C)/C(=N\OC)[C@H](C)[C@H]2OC(=O)O[C@@]21C	Selectivity ratio	2
CC[C@H]1OC(=O)[C@H](C)[C@@H](OC(=O)CCN2CCN(c3c(F)cc4c(=O)c(C(=O)O)cn(C5CC5)c4c3OC)CC2C)[C@H](C)[C@@H](O[C@@H]2O[C@H](C)C[C@H](N(C)C)[C@H]2O)[C@](C)(OC)C[C@@H](C)/C(=N\OCC#Cc2cncc(C(=O)NC)c2)[C@H](C)[C@H]2OC(=O)O[C@@]21C (some centres not stated)	Selectivity ratio	1
CC[C@H]1OC(=O)[C@H](C)[C@@H](OC(=O)CCNCCCc2ccc3c(c2)c(=O)c(C(=O)O)cn3C2CC2)[C@H](C)[C@@H](O[C@@H]2O[C@H](C)C[C@H](N(C)C)[C@H]2O)[C@](C)(OC)C[C@@H](C)/C(=N\OC)[C@H](C)[C@H]2OC(=O)O[C@@]21C	Selectivity ratio	2
